experimentalSystem: human GLP-1R (Homo sapiens)
Construct: host or cells: COS-7
Sequence (P43220 24-463): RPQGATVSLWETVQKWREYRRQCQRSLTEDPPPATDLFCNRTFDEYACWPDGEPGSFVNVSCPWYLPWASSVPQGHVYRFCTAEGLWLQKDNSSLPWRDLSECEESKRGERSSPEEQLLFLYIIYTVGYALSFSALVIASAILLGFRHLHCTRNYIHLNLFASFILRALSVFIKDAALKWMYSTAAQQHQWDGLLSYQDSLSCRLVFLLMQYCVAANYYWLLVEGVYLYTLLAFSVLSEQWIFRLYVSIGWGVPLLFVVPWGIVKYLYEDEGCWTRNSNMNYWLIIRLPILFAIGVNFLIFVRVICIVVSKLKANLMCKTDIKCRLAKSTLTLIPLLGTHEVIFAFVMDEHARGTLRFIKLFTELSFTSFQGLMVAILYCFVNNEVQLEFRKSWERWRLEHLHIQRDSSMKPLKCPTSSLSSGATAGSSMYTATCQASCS
experimentSummary: cAMP assay (HitHunter) in transiently transfected COS-7 cells expressing human GLP-1R
Format: cell-based
runConditions: cAMP, COS-7 cells, human GLP-1R; read-out: EC50 (nM) GLP-1R
*1 amine or outer side, *2 acyl side, *3 side chain or, on linkers, in order; H or OH if unused. Where no end group is shown, it is not given here. Side-chain parts run from the residue outwards. [ ]: non-standard residue; d: D form. The star is where a group is joined. C18 diacid = O=C(O)CCCCCCCCCCCCCCCCC(=O)*; γGlu = O=C(O)[C@H](CCC(=O)[*:2])N[*:1]; AEEA = NCCOCCOCC(=O)O; Aib = CC(C)(N)C(=O)O
reportedMetric: EC50 (nM)
Report the value in nM with no unit label.

Sample answers from the record:
HADGTFTSDYST[Aib]LDKLAARDFINWLIQTKGKKNDWKHNITQK([AEEA-AEEA-γGlu-C18 diacid])-OH [Compound 27]    0.05
HADGTFTSDYSTILDK([AEEA-AEEA-γGlu-C18 diacid])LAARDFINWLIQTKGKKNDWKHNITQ-OH [Compound 21]    0.05
HADGTFTSDYSTILDKLAARDFINWLIQTKGKK([AEEA-AEEA-γGlu-C18 diacid])NDWKHNITQ-OH [Compound 24]    0.05
H-HADGTFTSDYSTILDKLAARDFINWLIQTKGKKNDWK([AEEA-AEEA-γGlu-C18 diacid])HNITQ-OH [Compound 25]    0.05

Consider the additional substance presented here.
**Query** Could you share which EC50 value was measured for HADGTFTSDYST[Aib]LDK([AEEA-AEEA-γGlu-C18 diacid])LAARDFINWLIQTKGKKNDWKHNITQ-OH [Compound 22] ?
**Result** 0.04

* * *

experimentalSystem: human GIPR (Homo sapiens)
Construct: host or cells: COS-7
Sequence (P48546 22-466): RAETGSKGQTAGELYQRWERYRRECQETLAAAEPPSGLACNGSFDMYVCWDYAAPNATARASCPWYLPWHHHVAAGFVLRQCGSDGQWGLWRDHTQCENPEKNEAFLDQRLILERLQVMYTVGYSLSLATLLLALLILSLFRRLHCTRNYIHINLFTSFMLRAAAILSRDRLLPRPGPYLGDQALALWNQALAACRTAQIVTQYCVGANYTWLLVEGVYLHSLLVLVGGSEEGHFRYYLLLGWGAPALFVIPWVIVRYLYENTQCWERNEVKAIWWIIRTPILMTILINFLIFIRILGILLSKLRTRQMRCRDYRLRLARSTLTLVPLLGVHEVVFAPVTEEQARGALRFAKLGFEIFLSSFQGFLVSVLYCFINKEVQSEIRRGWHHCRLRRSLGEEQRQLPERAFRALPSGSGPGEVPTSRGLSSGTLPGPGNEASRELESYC
experimentSummary: cAMP assay (HitHunter) in transiently transfected COS-7 cells expressing human GIPR
Type: cell-based
runConditions: COS-7; normalized to highest concentration of the endogenous ligand; read-out: Efficacy GIPR (Emax)
Experimental: The next day the assay was initiated by washing with HEPES buffered saline (HBS) and followed by an incubation step with assay buffer (HBS added 1 mM isobutyl-1-methylxanthine (IBMX)) for 30 min at 37° C. […] The potencies (EC50 values) were determined by nonlinear regression using GraphPad Prism 9 (San Diego, California, USA). […] The efficacies (Emax values) were determined by normalization to the highest concentration applied of the endogenous ligand for each receptor.
*1 amine or outer side, *2 acyl side, *3 side chain or, on linkers, in order; H or OH if unused. Where no end group is shown, it is not given here. Side-chain parts run from the residue outwards. [ ]: non-standard residue; d: D form. The star is where a group is joined. C18 diacid = O=C(O)CCCCCCCCCCCCCCCCC(=O)*; γGlu = O=C(O)[C@H](CCC(=O)[*:2])N[*:1]; AEEA = NCCOCCOCC(=O)O; Aib = CC(C)(N)C(=O)O
reportedMetric: Emax (%)
Form entry: value (%) — number only.

HADGTFTSDYSTILDKLAARDFINWLIQTKGKKNDWKHNITQK([AEEA-AEEA-γGlu-C18 diacid])-OH [Compound 26]    106
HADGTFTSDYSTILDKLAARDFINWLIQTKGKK([AEEA-AEEA-γGlu-C18 diacid])NDWKHNITQ-OH [Compound 24]    96
H-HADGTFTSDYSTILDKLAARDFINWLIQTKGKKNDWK([AEEA-AEEA-γGlu-C18 diacid])HNITQ-OH [Compound 25]    107
HADGTFTSDYST[Aib]LDK([AEEA-AEEA-γGlu-C18 diacid])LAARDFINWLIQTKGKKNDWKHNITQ-OH [Compound 22]    93
HADGTFTSDYST[Aib]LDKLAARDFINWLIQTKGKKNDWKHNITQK([AEEA-AEEA-γGlu-C18 diacid])-OH [Compound 27]    124

**Query** Request - read-out Emax | tested on human GIPR (Homo sapiens) | substance HADGTFTSDYSTILDK([AEEA-AEEA-γGlu-C18 diacid])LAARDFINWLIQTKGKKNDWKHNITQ-OH [Compound 21]
**Result** 104

**Query** Entry to check: HADGTFTSDYSIILDK([AEEA-AEEA-γGlu-C18 diacid])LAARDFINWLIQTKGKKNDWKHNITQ-OH [Compound 20]
**Result** 112
